tested.on: CYP3A4 (Homo sapiens)
Sequence (P08684 whole entry): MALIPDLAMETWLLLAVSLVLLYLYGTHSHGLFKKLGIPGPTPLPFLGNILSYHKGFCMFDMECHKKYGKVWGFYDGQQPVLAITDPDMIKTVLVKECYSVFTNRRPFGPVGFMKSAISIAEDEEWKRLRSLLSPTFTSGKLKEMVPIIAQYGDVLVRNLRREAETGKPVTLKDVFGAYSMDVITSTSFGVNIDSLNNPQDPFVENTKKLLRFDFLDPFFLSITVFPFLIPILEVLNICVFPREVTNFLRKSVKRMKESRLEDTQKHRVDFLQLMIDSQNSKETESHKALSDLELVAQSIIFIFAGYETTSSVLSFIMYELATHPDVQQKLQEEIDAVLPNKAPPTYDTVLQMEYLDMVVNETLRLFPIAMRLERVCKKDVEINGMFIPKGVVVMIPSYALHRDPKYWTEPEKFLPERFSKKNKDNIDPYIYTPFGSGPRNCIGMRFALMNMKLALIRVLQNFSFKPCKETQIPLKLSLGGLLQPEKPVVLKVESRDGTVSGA
protocol: Determination of IC50 against CYP3A4 by measurement of inhibition of midazolam metabolism (human liver microsomes, 1-hydroxymidazolam by LC-MS/MS)
Assay type: biochemical
Set-up: 0.1 mg/mL human liver microsomes
experimental.setup: 2 μM midazolam, 0.1 mg/mL human liver microsomes
readout: IC50

// below: answered molecules
>  <input.smiles>
COc1cncc(NS(=O)(=O)c2ccccc2C(=O)NCC(F)(F)C(F)(F)C(F)(F)F)c1

>  <tested.on>
CYP3A4 (Homo sapiens)

>  <measured.result>
> 750 nM

$$$$
>  <input.smiles>
N#Cc1cncc(NS(=O)(=O)c2ccccc2C(=O)N2CCCCC2)c1

>  <tested.on>
CYP3A4 (Homo sapiens)

>  <measured.result>
> 750 nM

$$$$

Please fill in: IC50 reported for COc1cncc(NS(=O)(=O)c2ccccc2C(=O)NCCN2CCCCC2)c1 = > 750 nM
